MEC for assorted compounds
Biological target: recombinant guanylate cyclase reporter cell line (Rattus norvegicus)
Construct: expressed in transfected cells
Sequence (P20595 1-619): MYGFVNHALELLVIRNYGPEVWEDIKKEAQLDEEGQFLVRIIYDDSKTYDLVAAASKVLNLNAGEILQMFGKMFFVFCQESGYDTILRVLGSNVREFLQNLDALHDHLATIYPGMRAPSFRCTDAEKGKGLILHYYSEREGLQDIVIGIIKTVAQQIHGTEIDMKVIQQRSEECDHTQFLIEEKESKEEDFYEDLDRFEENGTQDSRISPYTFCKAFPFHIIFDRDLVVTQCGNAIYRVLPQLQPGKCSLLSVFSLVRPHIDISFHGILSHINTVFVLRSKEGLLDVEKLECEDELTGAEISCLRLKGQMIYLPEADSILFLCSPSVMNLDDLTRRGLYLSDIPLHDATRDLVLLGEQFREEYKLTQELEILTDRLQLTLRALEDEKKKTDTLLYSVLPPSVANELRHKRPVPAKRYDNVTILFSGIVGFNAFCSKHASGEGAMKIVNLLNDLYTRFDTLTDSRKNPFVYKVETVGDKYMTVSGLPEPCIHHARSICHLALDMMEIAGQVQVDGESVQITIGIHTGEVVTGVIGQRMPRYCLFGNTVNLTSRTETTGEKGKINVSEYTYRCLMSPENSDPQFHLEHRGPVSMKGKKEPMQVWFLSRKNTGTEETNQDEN
Sequence (P19686 1-690 partner): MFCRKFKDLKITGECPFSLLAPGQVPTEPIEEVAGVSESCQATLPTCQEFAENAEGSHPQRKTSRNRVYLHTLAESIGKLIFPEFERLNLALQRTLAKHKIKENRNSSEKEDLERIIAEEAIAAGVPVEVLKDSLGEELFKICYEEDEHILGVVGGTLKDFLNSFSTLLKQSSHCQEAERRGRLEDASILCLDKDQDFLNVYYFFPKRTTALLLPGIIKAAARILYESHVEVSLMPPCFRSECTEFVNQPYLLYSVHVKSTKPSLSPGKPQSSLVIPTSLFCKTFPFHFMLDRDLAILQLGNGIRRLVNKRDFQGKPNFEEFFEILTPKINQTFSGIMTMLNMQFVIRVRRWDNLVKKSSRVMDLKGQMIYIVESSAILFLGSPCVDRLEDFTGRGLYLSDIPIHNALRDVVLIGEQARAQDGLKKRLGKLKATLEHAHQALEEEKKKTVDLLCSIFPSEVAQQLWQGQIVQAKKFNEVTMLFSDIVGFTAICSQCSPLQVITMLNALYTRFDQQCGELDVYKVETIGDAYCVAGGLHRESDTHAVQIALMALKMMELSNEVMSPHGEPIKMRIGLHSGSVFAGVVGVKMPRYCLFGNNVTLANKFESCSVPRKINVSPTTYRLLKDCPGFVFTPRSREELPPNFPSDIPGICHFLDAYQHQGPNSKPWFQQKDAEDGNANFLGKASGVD
Experiment: Effect on a recombinant guanylate cyclase reporter cell line
Format: cell-based
Settings: MEC = minimum effective concentration; in some cases mean values from individual determinations
Description: The cellular activity of the compounds according to the invention was determined using a recombinant guanylate cyclase reporter cell line, as described in F. Wunder et al., Anal. Biochem. 339, 104-112 (2005).
Report only the number, with the unit nM understood.

Provide MEC, tested on recombinant guanylate cyclase reporter cell line (Rattus norvegicus), for CC(C)OC(=O)N1CCN(c2ccc(-c3ccc(Cl)cc3N3CCCC(n4ncc(C(=O)O)c4C(F)(F)F)C3)cc2)CC1 (single isomer, unassigned) .
3.0

Provide MEC, tested on recombinant guanylate cyclase reporter cell line (Rattus norvegicus), for COC(=O)N1CCN(c2ccc(-c3ccc(Cl)cc3N3CCCC(n4ncc(C(=O)O)c4C(F)(F)F)C3)cc2)CC1 (single isomer, unassigned) .
3.0

Provide MEC, tested on recombinant guanylate cyclase reporter cell line (Rattus norvegicus), for O=C(O)c1cnn(C2CCCN(c3cc(Cl)ccc3-c3ccc(C4CC4)nc3)C2)c1C(F)(F)F (single isomer, unassigned) .
1.0

----------
target: recombinant guanylate cyclase reporter cell line (Rattus norvegicus, UniProt P20595); test: Effect on a recombinant guanylate cyclase reporter cell line; settings: half maximal effective concentration; in some cases mean values from individual determinations
quantity-measured: pEC50
API: returns pEC50 as number; meaning -log10 of concentration in mol/L.

Recorded pEC50, per entry:
{"compound": "COCCOC(=O)N1CCN(c2ccc(-c3ccc(Cl)cc3N3CCCC(n4ncc(C(=O)O)c4C(F)(F)F)C3)cc2)CC1 (single isomer, unassigned)", "endpoint-value": 7.24}
{"compound": "O=C(O)c1cnn(C2CCCN(c3cc(Cl)ccc3-c3ccc(N4CCN(CC(F)(F)F)CC4)cc3)C2)c1C(F)(F)F (single isomer, unassigned)", "endpoint-value": 7.84}

Would you kindly look at the next entry?
Indicate the recorded pEC50 value for this compound: O=C(O)c1cnn(C2CCCN(c3cc(Cl)ccc3-c3ccc4c(c3)CCN(CC(F)(F)F)C4)C2)c1C(F)(F)F (single isomer, unassigned)
7.07

----------
molecular target: recombinant guanylate cyclase reporter cell line (Rattus norvegicus, UniProt P20595); construct: expressed in transfected cells; experiment: Effect on a recombinant guanylate cyclase reporter cell line; type: cell-based; conditions: half maximal effective concentration; in some cases mean values from individual determinations
Where a name gives a salt, the structure may show the parent alone.
Lab note: anything with EC50 below 30 nM is marked 1; values at 30 nM or higher are marked 0.

{"molecule": "O=C(O)c1cnn(C2CCCN(c3cc(Cl)ccc3-c3ccc(C4CCN(C(=O)C5CC5)CC4)cc3)C2)c1C(F)(F)F (single isomer, unassigned) [Example 85, hydrochloride]", "category-label": 1}
{"molecule": "O=C(O)c1cnn(C2CCCN(c3cc(Cl)ccc3-c3ccc(N4CCN(CC5CC5)CC4)c(F)c3)C2)c1C(F)(F)F (single isomer, unassigned) [Example 71, hydrochloride]", "category-label": 0}
{"molecule": "O=C(O)c1cnn(C2CCCN(c3cc(Cl)ccc3-c3ccc(N4CCN(C(=O)C5CC5F)CC4)cc3)C2)c1C(F)(F)F (single isomer, unassigned)", "category-label": 0}
{"molecule": "O=C(O)c1cnn(C2CCCN(c3cc(Cl)ccc3-c3ccc(N4CCN(C(=O)C5(F)CC5)CC4)cc3)C2)c1C(F)(F)F (single isomer, unassigned)", "category-label": 1}
{"molecule": "N#CCCN1CCN(c2ccc(-c3ccc(Cl)cc3N3CCCC(n4ncc(C(=O)O)c4C(F)(F)F)C3)cc2)CC1 (single isomer, unassigned)", "category-label": 1}
{"molecule": "CC(C)CC(=O)N1CCN(c2ccc(-c3ccc(Cl)cc3N3CCCC(n4ncc(C(=O)O)c4C(F)(F)F)C3)cc2)CC1 (single isomer, unassigned)", "category-label": 0}

Check if EC50 falls below 30 nM for O=C(O)c1cnn(C2CCCN(c3cc(Cl)ccc3-c3ccc(N4CCN(C(=O)C5CC(F)(F)C5)CC4)cc3)C2)c1C(F)(F)F (single isomer, unassigned) .
0

Check if EC50 falls below 30 nM for CC(C)OC(=O)N1CCN(c2ccc(-c3ccc(Cl)cc3N3CCCC(n4ncc(C(=O)O)c4C(F)(F)F)C3)cc2)CC1 (single isomer, unassigned) .
1

Check if EC50 falls below 30 nM for O=C(O)c1cnn(C2CCCN(c3cc(Cl)ccc3-c3ccc(N4CCN(C(=O)C5CC5)CC4)cc3)C2)c1C(F)(F)F (single isomer, unassigned) .
1

----------
Target: recombinant guanylate cyclase reporter cell line (Rattus norvegicus)
Construct: expressed in transfected cells
Sequence (P20595 1-619): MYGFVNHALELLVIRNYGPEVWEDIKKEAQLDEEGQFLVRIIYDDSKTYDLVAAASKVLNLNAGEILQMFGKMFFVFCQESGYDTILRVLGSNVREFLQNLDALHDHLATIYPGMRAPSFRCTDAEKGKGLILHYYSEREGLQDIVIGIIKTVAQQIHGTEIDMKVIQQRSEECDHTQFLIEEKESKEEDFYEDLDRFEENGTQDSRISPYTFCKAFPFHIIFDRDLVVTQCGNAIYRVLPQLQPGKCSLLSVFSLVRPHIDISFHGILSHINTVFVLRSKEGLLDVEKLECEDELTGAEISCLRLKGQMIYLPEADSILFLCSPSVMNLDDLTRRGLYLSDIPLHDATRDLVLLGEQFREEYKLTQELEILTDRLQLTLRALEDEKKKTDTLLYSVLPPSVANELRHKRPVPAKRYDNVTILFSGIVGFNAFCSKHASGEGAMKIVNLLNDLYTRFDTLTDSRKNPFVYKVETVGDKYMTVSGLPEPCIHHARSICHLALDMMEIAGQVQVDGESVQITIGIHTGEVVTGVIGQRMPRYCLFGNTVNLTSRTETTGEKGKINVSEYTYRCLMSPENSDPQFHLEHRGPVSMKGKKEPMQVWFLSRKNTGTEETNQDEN
Sequence (P19686 1-690 partner): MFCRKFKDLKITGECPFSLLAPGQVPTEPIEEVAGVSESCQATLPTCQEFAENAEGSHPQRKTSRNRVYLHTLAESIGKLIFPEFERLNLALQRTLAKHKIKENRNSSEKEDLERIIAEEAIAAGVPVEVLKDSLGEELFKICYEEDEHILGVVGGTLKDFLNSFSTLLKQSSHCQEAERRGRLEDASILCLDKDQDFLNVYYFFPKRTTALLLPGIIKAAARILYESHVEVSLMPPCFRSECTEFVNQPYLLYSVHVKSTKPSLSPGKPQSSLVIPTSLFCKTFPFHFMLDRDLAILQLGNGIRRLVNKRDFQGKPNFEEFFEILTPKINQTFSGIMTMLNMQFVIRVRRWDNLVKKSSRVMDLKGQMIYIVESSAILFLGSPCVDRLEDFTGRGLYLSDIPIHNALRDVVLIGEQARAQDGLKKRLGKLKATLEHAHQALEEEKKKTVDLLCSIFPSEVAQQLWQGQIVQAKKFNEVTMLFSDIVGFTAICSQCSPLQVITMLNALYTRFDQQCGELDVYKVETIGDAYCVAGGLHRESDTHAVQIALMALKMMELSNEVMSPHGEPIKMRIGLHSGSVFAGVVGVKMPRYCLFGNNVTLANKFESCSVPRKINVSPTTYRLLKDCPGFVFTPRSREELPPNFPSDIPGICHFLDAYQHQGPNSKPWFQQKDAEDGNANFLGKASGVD
Test: Effect on a recombinant guanylate cyclase reporter cell line
Assay type: cell-based
Settings: MEC = minimum effective concentration; in some cases mean values from individual determinations
Structures can show the parent of a compound that is named as a salt.
quantity-measured: MEC

Recorded MEC, per entry:
{"compound": "O=C(O)c1cnn(C2CCCN(c3cc(Cl)ccc3-c3ccc(N4CCN(CC5CC5(F)F)CC4)cc3)C2)c1C(F)(F)F (mixture of isomers) [Example 31, hydrochloride]", "MEC": "1.0 nM"}
{"compound": "O=C(O)c1cnn(C2CCCN(c3cc(Cl)ccc3-c3ccc(N4CCN(C(=O)[C@@H]5C[C@@H]5F)CC4)cc3)C2)c1C(F)(F)F (single isomer, unassigned) [Example 46]", "MEC": "3.0 nM"}
{"compound": "O=C(O)c1cnn(C2CCCN(c3cc(Cl)ccc3-c3ccc(N4CCN(C(=O)C5(F)CC5)CC4)cc3)C2)c1C(F)(F)F (single isomer, unassigned) [Example 43]", "MEC": "1.0 nM"}
{"compound": "CNC(=O)N1CCN(c2ccc(-c3ccc(Cl)cc3N3CCCC(n4ncc(C(=O)O)c4C(F)(F)F)C3)cc2)CC1 (single isomer, unassigned) [Example 65]", "MEC": "10.0 nM"}

Would you kindly look at the next entry?
Indicate the recorded MEC value for this compound: O=C(O)c1cnn(C2CCCN(c3cc(Cl)ccc3-c3ccc(N4CCN(CC5CC5)CC4)cc3F)C2)c1C(F)(F)F (single isomer, unassigned) [Example 69, hydrochloride]
3.0 nM
